Listed next: entries and their corresponding log10(IC50).
Target: RBG Protein/E7 (complex formation between E7 protein and p105-RB) (Homo sapiens)
Construct: Cell lysates used as source of RBG protein were prepared from human T24 bladder carcinoma cells; endogenous in cells; host or cells: human T24 bladder carcinoma cells (whole cell lysate)
Sequence (P06400 1-928): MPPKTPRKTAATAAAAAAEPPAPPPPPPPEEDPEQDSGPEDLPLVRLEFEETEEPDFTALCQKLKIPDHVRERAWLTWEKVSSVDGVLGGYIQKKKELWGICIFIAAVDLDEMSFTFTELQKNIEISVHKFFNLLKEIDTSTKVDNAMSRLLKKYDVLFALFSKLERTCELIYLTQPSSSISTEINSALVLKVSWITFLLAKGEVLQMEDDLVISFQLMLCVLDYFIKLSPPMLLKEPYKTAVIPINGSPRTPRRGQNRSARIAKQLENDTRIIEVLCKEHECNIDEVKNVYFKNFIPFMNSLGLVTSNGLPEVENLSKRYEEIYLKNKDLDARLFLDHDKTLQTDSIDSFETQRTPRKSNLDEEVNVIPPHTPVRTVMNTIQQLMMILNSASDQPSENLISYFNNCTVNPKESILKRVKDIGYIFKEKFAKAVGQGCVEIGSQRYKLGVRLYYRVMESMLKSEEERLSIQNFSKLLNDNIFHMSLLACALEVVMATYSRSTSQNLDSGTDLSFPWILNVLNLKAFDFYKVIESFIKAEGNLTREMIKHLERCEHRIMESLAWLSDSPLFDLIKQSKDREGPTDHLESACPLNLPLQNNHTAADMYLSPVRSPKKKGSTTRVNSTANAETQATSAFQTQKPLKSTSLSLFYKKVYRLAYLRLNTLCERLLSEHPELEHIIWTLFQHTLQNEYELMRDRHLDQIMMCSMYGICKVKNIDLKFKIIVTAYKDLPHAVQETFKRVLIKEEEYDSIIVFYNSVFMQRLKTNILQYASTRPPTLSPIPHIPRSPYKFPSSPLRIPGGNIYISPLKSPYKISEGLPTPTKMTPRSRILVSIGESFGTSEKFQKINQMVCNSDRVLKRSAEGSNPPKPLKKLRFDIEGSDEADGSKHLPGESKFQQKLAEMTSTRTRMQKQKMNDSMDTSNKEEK
Assay: E7/RB solution assay (immunoprecipitation, T24 cell lysates as source of RBG protein)
Format: binding
Conditions: average of at least two experiments, triplicate; read-out: SOLUTION ASSAY RBG Protein/E7 IC₅₀
Where no end group is shown, it is not given here.
OUTCOME MEASURE: log10(IC50) (log10 of the value in µM)

{"SUBSTANCE": "E7-(18-29)-AMIDE (ETTDLYCYEQLN-NH2; UniProt P03129 18-29, looked up, fragment) [Peptide 8]", "log10(IC50)": -0.40}
{"SUBSTANCE": "E7-(21)32)-AMIDE (DLYCYEQLNDSS-NH2; UniProt P03129 21-32, looked up, fragment) [Peptide 10]", "log10(IC50)": 1.30}
{"SUBSTANCE": "[Ser²⁴]-E7-(20-32)-AMIDE (TDLYSYEQLNDSS-NH2; UniProt P03129 20-32, looked up, variant C24S) [Peptide 16]", "log10(IC50)": 1.60}
{"SUBSTANCE": "[G1n27]]-E7-(20-27)-AMIDE (TDLYCYEQ-NH2; UniProt P03129 20-27, looked up, fragment) [Peptide 5]", "log10(IC50)": 1.70}
{"SUBSTANCE": "E7-(20-32)-AMIDE (TDLYCYEQLNDSS-NH2; UniProt P03129 20-32, looked up, fragment) [Peptide 1]", "log10(IC50)": 0.00}

Data provenance is patent EP0531080A2.
